Values compiled from patent US10968210B2.

# assayed target: human Nav 1.7 channels stably expressed in HEK 293 cells (Homo sapiens, UniProt Q15858)
# Sequence (Q15858 whole entry): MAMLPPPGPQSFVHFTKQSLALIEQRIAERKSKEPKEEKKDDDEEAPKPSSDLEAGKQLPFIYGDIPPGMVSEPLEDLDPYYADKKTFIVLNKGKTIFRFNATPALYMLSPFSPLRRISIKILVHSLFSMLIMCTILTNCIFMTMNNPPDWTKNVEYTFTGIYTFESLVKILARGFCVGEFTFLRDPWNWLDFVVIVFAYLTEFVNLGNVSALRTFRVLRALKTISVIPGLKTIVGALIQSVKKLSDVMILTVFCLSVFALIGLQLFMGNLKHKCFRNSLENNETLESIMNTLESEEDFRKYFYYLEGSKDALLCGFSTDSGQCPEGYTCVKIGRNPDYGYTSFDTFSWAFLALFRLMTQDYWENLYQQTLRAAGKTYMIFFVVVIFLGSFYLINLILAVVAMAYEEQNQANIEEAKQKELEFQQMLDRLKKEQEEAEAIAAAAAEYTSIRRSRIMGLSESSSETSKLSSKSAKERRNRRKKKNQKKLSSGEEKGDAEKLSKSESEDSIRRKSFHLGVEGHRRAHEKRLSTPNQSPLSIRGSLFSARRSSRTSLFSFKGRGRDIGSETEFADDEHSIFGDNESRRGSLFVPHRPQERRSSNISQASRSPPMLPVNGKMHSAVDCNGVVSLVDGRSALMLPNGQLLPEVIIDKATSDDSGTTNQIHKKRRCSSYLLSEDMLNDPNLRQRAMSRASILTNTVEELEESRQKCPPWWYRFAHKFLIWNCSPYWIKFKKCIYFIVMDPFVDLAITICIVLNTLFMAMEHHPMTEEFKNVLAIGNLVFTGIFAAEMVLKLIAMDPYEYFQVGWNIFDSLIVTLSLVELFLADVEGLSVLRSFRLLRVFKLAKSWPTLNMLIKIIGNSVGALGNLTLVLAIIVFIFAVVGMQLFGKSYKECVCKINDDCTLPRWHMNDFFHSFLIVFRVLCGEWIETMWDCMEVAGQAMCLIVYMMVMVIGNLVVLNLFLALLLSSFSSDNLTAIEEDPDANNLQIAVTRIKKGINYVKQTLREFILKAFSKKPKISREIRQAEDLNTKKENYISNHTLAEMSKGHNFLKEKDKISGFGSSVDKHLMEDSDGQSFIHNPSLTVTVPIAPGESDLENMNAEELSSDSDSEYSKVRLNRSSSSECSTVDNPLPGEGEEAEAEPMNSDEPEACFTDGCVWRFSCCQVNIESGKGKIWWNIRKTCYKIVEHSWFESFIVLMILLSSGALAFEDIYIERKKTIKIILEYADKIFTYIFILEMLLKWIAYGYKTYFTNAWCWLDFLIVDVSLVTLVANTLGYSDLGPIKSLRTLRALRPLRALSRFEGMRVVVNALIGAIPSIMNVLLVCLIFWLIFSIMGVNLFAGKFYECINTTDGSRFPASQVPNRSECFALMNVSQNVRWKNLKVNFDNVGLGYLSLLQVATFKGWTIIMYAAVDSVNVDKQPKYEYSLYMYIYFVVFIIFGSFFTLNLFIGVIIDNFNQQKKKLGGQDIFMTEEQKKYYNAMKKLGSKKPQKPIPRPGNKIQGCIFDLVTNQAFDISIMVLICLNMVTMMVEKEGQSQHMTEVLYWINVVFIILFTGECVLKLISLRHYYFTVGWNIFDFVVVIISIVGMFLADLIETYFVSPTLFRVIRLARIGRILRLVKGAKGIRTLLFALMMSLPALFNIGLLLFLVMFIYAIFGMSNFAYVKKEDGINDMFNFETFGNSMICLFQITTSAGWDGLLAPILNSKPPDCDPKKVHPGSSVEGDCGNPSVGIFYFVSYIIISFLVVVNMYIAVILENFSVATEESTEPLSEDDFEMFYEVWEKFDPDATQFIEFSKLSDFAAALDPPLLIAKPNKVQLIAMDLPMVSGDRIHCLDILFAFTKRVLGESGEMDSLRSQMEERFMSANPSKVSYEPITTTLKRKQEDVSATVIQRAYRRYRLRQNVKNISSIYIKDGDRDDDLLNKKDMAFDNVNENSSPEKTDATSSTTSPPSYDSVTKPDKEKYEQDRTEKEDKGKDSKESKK
# test details: IonWorks Quattro automated patch-clamp, inactivated state block of Nav 1.7
# condition description: double-pulse protocol, HEK 293 cells held at -100 mV, read-out: potency for the Nav 1.7 sodium ion channel (IC50, IonWorks)
Output: class label from IC50. Mapping: low-valued (below 20 nM), mid-valued (20 nM to below 50 nM), high-valued (50 nM or more)

Examples with answers:
1) NC1CN(CCCCNc2cc(F)c(S(=O)(=O)Nc3nccs3)cc2Cl)C1 : mid-valued
2) COc1ccc(CC2(CNCCCCNc3cc(F)c(S(=O)(=O)Nc4nccs4)cc3Cl)CCCN2)cc1 (single isomer, unassigned) [Ex 1-16 Enantiomer A] : high-valued
3) O=S(=O)(Nc1nccs1)c1cc(Cl)c(NCCCCNC[C@@H]2CC(F)(F)CN2)cc1F : high-valued
4) NCC1CN(CCCCNc2cc(F)c(S(=O)(=O)Nc3ncns3)cc2Br)C1 : low-valued
5) O=S(=O)(Nc1nccs1)c1cc(Cl)c(NCCCCNCC2NCc3ccccc32)cc1F (single isomer, unassigned) [Ex 2-4 Enantiomer A] : mid-valued
6) O=S(=O)(Nc1nccs1)c1cc(Cl)c(NCCCCNC2C[C@@H]3C[C@H]2CN3)cc1F (stereo partly shown) : low-valued
7) O=S(=O)(Nc1nccs1)c1cc(Cl)c(NCCCCNC[C@@H]2CC[C@H](c3ccccc3)N2)cc1F : low-valued
8) O=S(=O)(Nc1nccs1)c1cc(Cl)c(NCCCCN2CCC3(CCCN3)CC2)cc1F : mid-valued

Task item: Quick check: band for CN[C@@H]1CCN(CCCCNc2cc(F)c(S(=O)(=O)Nc3ncc(F)s3)cc2Cl)C1
Reply: low-valued

Task item: Quick check: band for O=S(=O)(Nc1nccs1)c1cc(Cl)c(NCCCCNCC2Cc3ccccc3CN2)cc1F (single isomer, unassigned) [Ex 1-19]
Reply: low-valued

Task item: Quick check: band for NCC(F)CNCCCCNc1cc(F)c(S(=O)(=O)Nc2ncc(F)s2)cc1Cl (stereo not shown)
Reply: mid-valued

Task item: Quick check: band for O=S(=O)(Nc1nccs1)c1cc(Cl)c(NCCCCN2CC[C@@H]3CCNC[C@@H]32)cc1F
Reply: mid-valued

Task item: Quick check: band for O=S(=O)(Nc1nccs1)c1cc(Cl)c(NCCCCN2CCC23CCCNC3)cc1F (stereo not shown)
Reply: high-valued
